- Tested on: Streptococcus pneumoniae
- assay-explanation: In vitro antibacterial activity against clinical isolates Ampicillin-insensitive Streptococcus pneumoniae was determined
- Assay type: functional
Please go through the items and note down their MIC90.
Numbers only, in µg/mL.

[[record]]
compound_structure_string = "CO[C@@]1(NC(=O)CSC(F)F)C(=O)N2C(C(=O)O)=C(CSc3nnnn3CCO)CO[C@@H]21"
numeric_result = 6.25


List MIC90 for every entry below, keeping the order given.
1. CC1(C)S[C@@H]2[C@H](NC(=O)[C@H](N)c3ccccc3)C(=O)N2[C@H]1C(=O)O
2. CCC(=O)C[n+]1ccc(SCC2=C(C(=O)O)N3C(=O)[C@@H](NC(=O)/C(=N\OC4CCCC4)c4csc(N)n4)[C@H]3CO2)cc1.O=S(=O)([O-])O
3. CO/N=C(\C(=O)N[C@@H]1C(=O)N2C(C(=O)[O-])=C(C[n+]3cccc4c3CCC4)CS[C@H]12)c1csc(N)n1

// result
3.13
0.05
0.78

* * *

- Test system: Pseudomonas aeruginosa
- assay-explanation: Antibacterial activity was determined against Pseudomonas aeruginosa ATCC 10145 (Gram-negative)
- Assay type: functional
measured-property: MIC (µg/mL)
Numbers only, in µg/mL.

[[record]]
compound_structure_string = "C#CC[n+]1ccc(SCC2=C(C(=O)O)N3C(=O)[C@@H](NC(=O)/C(=N\\OC4CCCC4)c4csc(N)n4)[C@H]3CO2)cc1.O=S(=O)([O-])O"
readout_unit = "µg/mL"
numeric_result = 6.25

[[record]]
compound_structure_string = "CC(C)=CC[n+]1ccc(SCC2=C(C(=O)O)N3C(=O)[C@@H](NC(=O)/C(=N\\OC4CCCC4)c4csc(N)n4)[C@H]3CO2)cc1.O=S(=O)([O-])O"
readout_unit = "µg/mL"
numeric_result = 12.5

[[record]]
compound_structure_string = "CNC(=O)C[n+]1ccc(SCC2=C(C(=O)O)N3C(=O)[C@@H](NC(=O)/C(=N\\OC4CCCC4)c4csc(N)n4)[C@H]3CO2)cc1.O=S(=O)([O-])O"
readout_unit = "µg/mL"
numeric_result = 12.5

[[record]]
compound_structure_string = "CCC(=O)C[n+]1ccc(SCC2=C(C(=O)O)N3C(=O)[C@@H](NC(=O)/C(=N\\OC4CCCC4)c4csc(N)n4)[C@H]3CO2)cc1.O=S(=O)([O-])O"
readout_unit = "µg/mL"
numeric_result = 6.25

[[record]]
compound_structure_string = "N#CC[n+]1ccc(SCC2=C(C(=O)O)N3C(=O)[C@@H](NC(=O)/C(=N\\OC4CCCC4)c4csc(N)n4)[C@H]3CO2)cc1.O=S(=O)([O-])O"
readout_unit = "µg/mL"
numeric_result = 6.25


List MIC for every entry below, keeping the order given.
1. Nc1nc(/C(=N/OC2CCCC2)C(=O)N[C@@H]2C(=O)N3C(C(=O)O)=C(CSc4cc[n+](CC(=O)N5CCOCC5)cc4)OC[C@H]23)cs1.O=S(=O)([O-])O
2. C=CC[n+]1ccc(SCC2=C(C(=O)O)N3C(=O)[C@@H](NC(=O)/C(=N\OC4CCCC4)c4csc(N)n4)[C@H]3CO2)cc1.O=S(=O)([O-])O
3. Nc1nc(/C(=N/OC2CCCC2)C(=O)N[C@@H]2C(=O)N3C(C(=O)O)=C(CSc4cc[n+](CC(=O)c5ccccc5)cc4)OC[C@H]23)cs1.O=S(=O)([O-])O

// result
6.25
6.25
25
